# protocol.details: Antioxidant activity assessed as bleomycin-Fe2+-induced DNA degradation after 1 hr by spectrophotometry
# Assay type: physicochemical

molecule: CC(C)C(C(=O)NC(C)(C)C)N(CCc1c[nH]c2ccccc12)C(=O)c1ccccc1[Se][Se]c1ccccc1C(=O)N(CCc1c[nH]c2ccccc12)C(C(=O)NC(C)(C)C)C(C)C (centres undefined)
OD: 0.07

molecule: N#C[Se]c1ccc(N2C(=O)CCCC2=O)cc1
OD: 0.078

molecule: O=C1CCCC(=O)N1c1ccc([Se][Se]c2ccc(N3C(=O)CCCC3=O)cc2)cc1
OD: 0.09

molecule: O=C(O)CCC(=O)Nc1ccc([Se][Se]c2ccc(NC(=O)CCC(=O)O)cc2)cc1
OD: 0.088

molecule: O=c1c2ccccc2[se]n1-c1ccc([Se][Se]c2ccc(-n3[se]c4ccccc4c3=O)cc2)cc1
OD: 0.06

molecule: O=C(O)CCCC(=O)Nc1ccc([Se][Se]c2ccc(NC(=O)CCCC(=O)O)cc2)cc1
OD: 0.083

molecule: N#C[Se]c1ccc(-n2[se]c3ccccc3c2=O)cc1
OD: 0.09

molecule: CC(C)C(C(=O)NC(C)(C)C)N(Cc1ccccc1)C(=O)c1ccccc1[Se][Se]c1ccccc1C(=O)N(Cc1ccccc1)C(C(=O)NC(C)(C)C)C(C)C (centres undefined)
OD: 0.073

molecule: N#C[Se]c1ccc(N2C(=O)C=CC2=O)cc1
OD: 0.082

====

# protocol.details: Antioxidant activity assessed as DPPH free radical scavenging activity after 30 mins by spectrophotometry
# Type: physicochemical
# measurement.context: 0.5 h

smiles.str: N#C[Se]c1ccc(NC(=O)CCC(=O)O)cc1
Activity: Active
//
smiles.str: O=C(O)CCC(=O)Nc1ccc([Se][Se]c2ccc(NC(=O)CCC(=O)O)cc2)cc1
Activity: Active
//
smiles.str: O=C(O)/C=C\C(=O)Nc1ccc([Se][Se]c2ccc(NC(=O)/C=C\C(=O)O)cc2)cc1
Activity: Active

====

# protocol.details: Antioxidant activity assessed as glutathione peroxidase like activity after 3 mins by spectrophotometry
# Type: physicochemical
# measurement.context: 0.05 h
endpoint: Activity

compound: N#C[Se]c1ccc(N2C(=O)C=CC2=O)cc1
recorded.value: Active
--
compound: CC(C)C(C(=O)NC(C)(C)C)N(Cc1ccccc1)C(=O)c1ccccc1[Se][Se]c1ccccc1C(=O)N(Cc1ccccc1)C(C(=O)NC(C)(C)C)C(C)C (centres undefined)
recorded.value: Active
--
compound: O=C(O)CCCC(=O)Nc1ccc([Se][Se]c2ccc(NC(=O)CCCC(=O)O)cc2)cc1
recorded.value: Active
--
compound: N#C[Se]c1ccc(NC(=O)CCCC(=O)O)cc1
recorded.value: Active
--
compound: Cc1ccc(C(C(=O)NC(C)(C)C)N(CCc2c[nH]c3ccccc23)C(=O)c2ccccc2[Se][Se]c2ccccc2C(=O)N(CCc2c[nH]c3ccccc23)C(C(=O)NC(C)(C)C)c2ccc(C)cc2)cc1 (centres undefined)
recorded.value: Active
--
compound: N#C[Se]c1ccc(-n2[se]c3ccccc3c2=O)cc1
recorded.value: Not Active
--
compound: O=c1c2ccccc2[se]n1-c1ccccc1 [EBSELEN]
recorded.value: Active
--
compound: O=C1CCCC(=O)N1c1ccc([Se][Se]c2ccc(N3C(=O)CCCC3=O)cc2)cc1
recorded.value: Active
--
compound: O=c1c2ccccc2[se]n1-c1ccc([Se][Se]c2ccc(-n3[se]c4ccccc4c3=O)cc2)cc1
recorded.value: Not Active

Values from ChEMBL document CHEMBL3421606
